# ASSAY_SYSTEM: human DGKα (Homo sapiens (Human), UniProt P23743)
# Sequence (P23743 other isoform, or with tags, fused parts or gaps): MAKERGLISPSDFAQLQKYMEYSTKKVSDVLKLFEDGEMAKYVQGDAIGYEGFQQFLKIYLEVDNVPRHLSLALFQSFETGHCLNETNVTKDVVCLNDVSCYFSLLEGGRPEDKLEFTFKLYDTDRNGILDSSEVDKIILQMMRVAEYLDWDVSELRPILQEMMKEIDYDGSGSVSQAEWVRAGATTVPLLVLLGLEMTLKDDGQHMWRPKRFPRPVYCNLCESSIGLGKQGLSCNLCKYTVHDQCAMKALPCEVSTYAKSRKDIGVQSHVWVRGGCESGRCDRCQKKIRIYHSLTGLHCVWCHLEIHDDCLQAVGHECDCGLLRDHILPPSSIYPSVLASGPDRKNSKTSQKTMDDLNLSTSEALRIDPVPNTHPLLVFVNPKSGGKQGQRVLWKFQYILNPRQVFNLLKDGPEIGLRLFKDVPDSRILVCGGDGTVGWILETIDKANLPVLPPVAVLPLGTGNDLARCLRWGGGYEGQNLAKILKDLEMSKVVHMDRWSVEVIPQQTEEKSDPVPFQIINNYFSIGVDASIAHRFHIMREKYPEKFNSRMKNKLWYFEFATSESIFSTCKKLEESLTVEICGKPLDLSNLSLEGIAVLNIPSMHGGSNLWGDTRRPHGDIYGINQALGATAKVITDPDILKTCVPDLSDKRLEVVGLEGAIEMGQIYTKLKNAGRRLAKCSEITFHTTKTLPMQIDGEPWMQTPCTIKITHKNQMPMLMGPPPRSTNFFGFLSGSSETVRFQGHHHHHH
# MEASUREMENT_NOTES: biochemical
# STUDY_CONDITIONS: detergent/lipid micelle substrate; read-out: DGKα IC50
Measured log10 IC50, listed per entry for reference.
Parameter value (number): base-10 log of IC50 in µM.

COCCCn1c(=O)c([N+](=O)[O-])c(N2CCN(C(c3ccccc3)c3ccccc3)CC2)c2ncccc21 [Example 190]    1.76

Could you now consider this next molecule?
Task item: Request the reported log10 IC50 associated with Cc1ccc(CN2CCN(c3c(C#N)c(=O)n(C)c4ccc(Cl)nc34)CC2)cc1O [Example 328]
Reply: 0.00
